assayedSystem: T1, FLAG-tagged cynomolgus Ang2 (cynomolgus, UniProt O15123 19-496 (human entry), limits assumed)
T1 construct: N-terminally FLAG-tagged, conditioned medium of HEK293T cells; also called cAng2; FLAG-cAng2
T1 chain: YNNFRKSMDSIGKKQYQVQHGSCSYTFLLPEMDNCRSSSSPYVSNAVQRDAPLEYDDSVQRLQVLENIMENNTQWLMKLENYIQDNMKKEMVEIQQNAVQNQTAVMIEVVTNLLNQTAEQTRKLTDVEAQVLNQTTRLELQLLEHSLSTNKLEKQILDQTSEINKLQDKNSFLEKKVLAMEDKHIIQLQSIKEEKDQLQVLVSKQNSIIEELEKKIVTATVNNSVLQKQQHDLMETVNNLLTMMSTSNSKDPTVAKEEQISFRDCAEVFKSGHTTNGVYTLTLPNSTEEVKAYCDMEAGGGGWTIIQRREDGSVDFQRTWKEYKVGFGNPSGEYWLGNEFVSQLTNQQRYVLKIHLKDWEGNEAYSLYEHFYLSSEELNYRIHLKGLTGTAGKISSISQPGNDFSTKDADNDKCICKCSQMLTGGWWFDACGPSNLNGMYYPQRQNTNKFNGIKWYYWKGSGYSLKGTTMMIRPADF
experimentDescription: competition ELISA: FLAG-cAng2 binding to coated cTie2-Fc
recordedMetric: IC50
Record the result as number plus unit.

Worked examples follow.
binder	IC50
VHH 00048 (VHH, not shown: small tags and cut ends) VHH: EVQLVESGGGLVQAGGSLRLSCAASGFTLDDYAIGWFRQAPGKEREGVSSIRDSDGSTYYADSVKGRFTISSDNDKNTVYLQMNSLKPEDTAVYYCAAVPAGRLRFGEQWYPLYEYDAWGQGTLVTVSS	1 nM
VHH 00051 (VHH, not shown: small tags and cut ends) VHH: EVQLVESGGGLVQPGGSLRLSCAASGFTFDDYALGWFRQAAGKEREGVSCIRCSGGSTYYADSVKGRFTISSDNSKNTVYLQMNSLRPEDTAVYYCAASIVPRSKLEPYEYDAWGQGTLVTVSS	15 nM

Now turn to the next binder.
# lookup: IC50 of VHH 00925 (VHH, not shown: small tags and cut ends) VHH: DVQLVESGGGLVQPGGSLRLSCAASGFTFDDYALGWFRQAPGKEREGVSCIRCSGGSTYYADSVKGRFTISSDNSKNTVYLQMNSLRPEDTAVYYCAASIVPRSKLEPYEYDAWGQGTLVTVSS
33 nM
